Here, each record is paired with measured pIC50 data.
test system: ML2 cells (acute myeloid leukemia); experiment: Cell death after 96 h of treatment (ANXN/7AAD flow cytometry), ML2; type: cell-based; conditions: Homo sapiens, ML-2; ML2, 96 h
Keep it numeric: pIC50 is minus log10 of the concentration in mol/L.

Task: Entry under review: "O=C(/C=C/c1cccnc1)NCCCCC1CCN(C(=O)c2ccco2)CC1" . Reported pIC50?
Output: 9.29

Continuing:
Task: Entry under review: "N#CN=C(NC/C=C/CCC1CCN(C(=O)c2ccco2)CC1)Nc1ccncc1" . Reported pIC50?
Output: 9.68

Task: Entry under review: O=C(/C=C/c1cccnc1)NCCCCC1CCN(C(=O)c2ccccc2)CC1 [APO866, reference compound] . Reported pIC50?
Output: 9.39

---

assay: Pharmacokinetics in mice after intraperitoneal administration; type: in vivo; settings: mouse, plasma, ip; female SCID mice, intraperitoneal, 20 mg/kg (Figure S1); AUC calculated from PK measurements up to 8 h; read-out: AUC0-24 (*)
READOUT_LABEL: AUC(0-t)

Task: Entry under review: N#CN=C(NC/C=C/CCC1CCN(C(=O)c2ccco2)CC1)Nc1ccncc1 [FEI199] . Reported AUC(0-t)?
Output: 3720 ng·h/mL

---

experiment: Pharmacokinetics in mice after intraperitoneal administration; type: in vivo; conditions: mouse, ip; female SCID mice, intraperitoneal, 20 mg/kg (Figure S1), plasma; read-out: AUC0-24
READOUT_LABEL: AUC(0-t) (ng·h/mL)
Report only the number, with the unit ng·h/mL understood.

Task: Entry under review: O=C(/C=C/c1cccnc1)NCCCCC1CCN(C(=O)c2ccccc2)CC1 [APO866, reference compound] . Reported AUC(0-t)?
Output: 16400

From here, focus on the item given below.
Task: Entry under review: "O=C(/C=C/c1cccnc1)NCCCCC1CCN(C(=O)c2ccco2)CC1" . Reported AUC(0-t)?
Output: 7560

---

experiment: Pharmacokinetics in mice after intraperitoneal administration; assay type: in vivo; settings: mouse, ip; female SCID mice, intraperitoneal, 20 mg/kg (Figure S1), plasma; read-out: Cmax
READOUT_LABEL: Cmax
Kindly write the number and append the unit.

Task: Entry under review: "O=C(/C=C/c1cccnc1)NCCCCC1CCN(C(=O)c2ccco2)CC1" . Reported Cmax?
Output: 24300 ng/mL

---

test: Pharmacokinetics in mice after intraperitoneal administration; type: in vivo; details: mouse, plasma, ip; female SCID mice, intraperitoneal, 20 mg/kg (Figure S1); (CL/F)/λz; read-out: Vz/F
READOUT_LABEL: Vd/F (L)
Report only the number, with the unit L understood.

Task: Entry under review: O=C(/C=C/c1cccnc1)NCCCCC1CCN(C(=O)c2ccccc2)CC1 [APO866, reference compound] . Reported Vd/F?
Output: 0.131

Task: Entry under review: "O=C(/C=C/c1cccnc1)NCCCCC1CCN(C(=O)c2ccco2)CC1" . Reported Vd/F?
Output: 0.502

---

Test: Pharmacokinetics in mice after intraperitoneal administration
Format: in vivo
Settings: mouse, ip; female SCID mice, intraperitoneal, 20 mg/kg (Figure S1), plasma; read-out: Tmax
Method: Concentration measurements in mice EDTA plasma samples were performed using a Vanquish Flex ultra-high-performance liquid chromatography (UHPLC) system attached to a TSQ Quantis^TM triple quadrupole mass spectrometer (MS) (ThermoFisher Scientific, Waltham, MA, USA). […] Drug plasma concentrations were measured at selected time points after intraperitoneal administration in mice (sacrificed mice in triplicates for each time point). Samples were analyzed on two separate occasions for each sampling. […]
READOUT_LABEL: Tmax (min)
Report only the number, with the unit min understood.

Task: Entry under review: "O=C(/C=C/c1cccnc1)NCCCCC1CCN(C(=O)c2ccco2)CC1" . Reported Tmax?
Output: 10.2
